Below, each entry is listed alongside its reported viability at 28.5 h, 10 µM.
# test-protocol: in vitro
# condition-label: human, hela cells, % viability
Return type: number; implicit unit %.

Solved entries:
COc1ccc(C(=O)Nc2nnc(C3=COCCO3)o2)cc1 : 93.9
Cc1cccc(C2(O)CCN(CC(O)c3ccccc3)CC2)c1 (stereo not shown) : 106
O=C(CCNS(=O)(=O)c1ccccc1Cl)N1CCN(C(=O)C2CC2)CC1 : 113
O=C(Nc1cc(Cl)cc(Cl)c1)c1csnn1 : 88.1
COc1cccc(C(=O)NCCC(=O)N2CCC3(CC2)CNC(=O)O3)c1 : 88.2
Cn1c(N2CCC(C(=O)NCC3CC3)CC2)nc2ccccc21 : 91.6

# context switch: different compound, same viability at 28.5 h, 10 µM
// field: viability at 28.5 h, 10 µM; key: "CN(C)CCN(C)c1cncc(-c2cccc(N(C)C)c2)n1" ; value = 100
